# System: DLD-1
# Protocol Text: NCI tumour cell line growth inhibition, 48 h
The source made the active and inactive calls. Rule as the data show it: active = GI50 up to about 1.1 µM and inactive = higher.
Property: GI50

Look up GI50 for this molecule: O=C(CC1(O)C(=O)Nc2c(Cl)cc(Cl)cc21)c1ccc2ccccc2c1 (stereo not given)
11.6 µM (inactive)

Next: Cc1cc(C)nc(NS(=O)(=O)c2ccc(NC(=O)c3ccc(Cl)c4c(Nc5ccc(S(=O)(=O)N=C(N)N)cc5)c5ccccc5nc34)cc2)n1
7.67 µM (inactive)

Next: CCCCCCCCCCCCCP(=O)(O)O
> 100 µM (inactive)

Next: CN(CC#N)C1CCCC[C@H]1O (stereo not given in full)
> 100 µM (inactive)

Next: N=C(N)NS(=O)(=O)c1ccc(NCCc2c3ccccc3nc3ccccc23)cc1
> 100 µM (inactive)

Next: N#Cc1c2nc3ccccc3nc2n2ccc3ccccc3c12
> 100 µM (inactive)

Next: CC(=O)N/C(=C\c1cccc([N+](=O)[O-])c1)c1nc2ccc3c(c2[nH]1)C(=O)c1ccccc1C3=O
12.2 µM (inactive)

Next: O=C(/C=C/c1ccc([N+](=O)[O-])o1)N1CCN(Cc2ccccc2)CC1
5.96 µM (inactive)

Next: CCOC(=O)CC(=O)ON(C)C(C)=O
> 100 µM (inactive)

Next: C[Si](C)(C)C(Sc1ccccc1)(Sc1ccccc1)Sc1ccccc1
53.6 µM (inactive)

Next: CC1=N/C(=C\c2ccc(/C=C3/N=C(C)OC3=O)cc2)C(=O)O1
> 100 µM (inactive)

Next: CCC(/C(=N\Nc1c(Cl)cc(Cl)cc1Cl)c1ccccc1)n1ccnc1C (stereo not given)
4.22 µM (inactive)

Next: Cc1cccc(NC(=O)c2cccc([N+](=O)[O-])c2O)c1C
27.3 µM (inactive)

Next: CN(C)CC1CC/C(=C\c2ccc3c(c2)OCO3)C1=O (stereo not given)
6.84 µM (inactive)

Next: Cc1cc([N+](=O)[O-])ccc1Sc1c2ccccc2nc2ccccc12
25.4 µM (inactive)

Next: COc1ccc(C(C)Nc2cc(OC)c(OC)c(OC)c2)cc1 (stereo not given)
5.81 µM (inactive)

Next: COc1ccc(C2Oc3cc(OC)c(OC)cc3C2CCl)cc1OC (stereo not given)
67.5 µM (inactive)

Next: CCOC(=O)C1N(S(=O)(=O)c2ccc(C)cc2)CCC12C(c1ccc(OC)c(OC)c1)=Nc1ccccc12 (stereo not given)
> 100 µM (inactive)

Next: CCOC(OCC)c1ccc(/C=C/c2cc(OC)c(OC)c(OC)c2)cc1
16.1 µM (inactive)

Next: c1ccc(C(c2ccccc2)c2cccnc2)cc1
> 100 µM (inactive)

Next: CCOc1cc2c(cc1OC)c[n+](C)c1c3cc(OC)c(OC)cc3ccc21
> 78.2 µM (inactive)

Next: CCC12CCCN(Cc3ccccc3)C1c1c(n(C)c3ccccc13)C(CO)C2 (stereo not given)
61.5 µM (inactive)

Next: COc1cc2c(c(OC)c1)C(=O)C(=O)C(CC1(C)OCCCO1)=C2
2.93 µM (inactive)

Next: Cc1cccc(C)c1NC(=O)CCC/C(CC(=O)c1ccc(F)cc1)=N\NC(=O)C(=O)NN
> 100 µM (inactive)

Next: COc1ccc(/C(=C\c2cc(OC)c(OC)c(OC)c2)C(=O)O)cc1
40.1 µM (inactive)

Next: CC(C)Cc1ccc(C(C)/C=C2\CCC(CN3CCCC3)C2=O)cc1 (stereo not given)
2.55 µM (inactive)

Next: CC[N+](C)(CC)CC(C)(C)C(=O)/C=C/c1ccc(/C=C/C(=O)C(C)(C)C[N+](C)(CC)CC)cc1
> 100 µM (inactive)

Next: C=C(COC(C)=O)CC(/C=C(\C)CC/C=C(\C)CO)OC(C)=O (stereo not given)
> 100 µM (inactive)

Next: CCOc1ccc2nc(NC(=O)c3c/c(=N\NC(=O)C[N+](C)(C)C)c4ccc(O)cc4o3)sc2c1
2.52 µM (inactive)

Next: NNC(=S)N/N=C/C(=C/Nc1ccccc1)[N+](=O)[O-]
> 100 µM (inactive)
